# Test system: 186277-243-T-J2-PDC complex spheroid viability
# PROTOCOL TEXT: Anticancer human tumor 186277-243-T-J2-PDC patient-derived colon adenocarcinoma cell line growth inhibition [POLQ]
# DETAILS: curve of first compound; second compound 1 µM
// reported IC50 for each item listed
Write down the numeric answer in nM and omit the unit.

C#Cc1c(F)ccc2cc(O)cc(-c3ncc4c(N5CC6CCC(C5)N6)nc(OCC56CCCN5CC(F)C6)nc4c3F)c12 (stereo not drawn) + Nc1ccc(C#CCN(C(=O)Cc2ncc(C(F)(F)F)cc2C(F)(F)F)c2ccc(F)cc2)nn1	288

# ---- query compound ----
Q) # input compound: C=CCn1c(=O)c2cnc(Nc3ccc(N4CCN(C)CC4)cc3)nc2n1-c1cccc(C(C)(C)O)n1 + COC1C(OC(N)=O)C(O)C(Oc2ccc3c(O)c(NC(=O)c4ccc(O)c(CC=C(C)C)c4)c(=O)oc3c2C)OC1(C)C ; wanted: its IC50
A) 182

---

# System: 186277-243-T-J2-PDC complex spheroid viability
# PROTOCOL TEXT: Anticancer human tumor 186277-243-T-J2-PDC cell line growth inhibition [POLQ]; active = viability on the fitted dose curve at most 10% of control; inactive = the rest;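 note: spheroids exposed to compounds for seven days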
# DETAILS: second compound 3.16 µM; first compound 10 µM
Hi there, use one of these labels in your reply, thanks! YES = active, NO = inactive

Known results for molecules:
C#Cc1c(F)ccc2cc(O)cc(-c3ncc4c(N5CC6CCC(C5)N6)nc(OCC56CCCN5CC(F)C6)nc4c3F)c12 (stereo unspecified) + Nc1ccc(C#CCN(C(=O)Cc2ncc(C(F)(F)F)cc2C(F)(F)F)c2ccc(F)cc2)nn1	NO
O=C(c1cc(Cc2n[nH]c(=O)c3ccccc23)ccc1F)N1CCN(C(=O)C2CC2)CC1 + Nc1ccc(C#CCN(C(=O)Cc2ncc(C(F)(F)F)cc2C(F)(F)F)c2ccc(F)cc2)nn1	NO
C=CC(=O)N1CCN(c2nc(=O)n(-c3c(C)ccnc3C(C)C)c3nc(-c4c(O)cccc4F)c(F)cc23)C(C)C1 (stereo unspecified) + Cc1cccc(N(C)C(=O)C2C(O)CCN2c2nc(C)cc(C(F)(F)F)c2C#N)c1	NO
O=c1[nH]cc(F)c(=O)[nH]1 + COC1C(OC(N)=O)C(O)C(Oc2ccc3c(O)c(NC(=O)c4ccc(O)c(CC=C(C)C)c4)c(=O)oc3c2C)OC1(C)C	NO
COc1cc2cc(C(=O)CCC(=O)O)sc2cc1OC + Cc1cccc(N(C)C(=O)C2C(O)CCN2c2nc(C)cc(C(F)(F)F)c2C#N)c1	NO

Q) For this molecule, state the assay outcome: C#Cc1c(F)ccc2cc(O)cc(-c3ncc4c(N5CC6CCC(C5)N6)nc(OCC56CCCN5CC(F)C6)nc4c3F)c12 (stereo unspecified) + COC1C(OC(N)=O)C(O)C(Oc2ccc3c(O)c(NC(=O)c4ccc(O)c(CC=C(C)C)c4)c(=O)oc3c2C)OC1(C)C
A) YES

Q) What do you have for CC(C)n1c(=O)n(C)c2cnc3cc(F)c(-c4ccc(OCCCN5CCCCC5)nc4)cc3c21 + COC1C(OC(N)=O)C(O)C(Oc2ccc3c(O)c(NC(=O)c4ccc(O)c(CC=C(C)C)c4)c(=O)oc3c2C)OC1(C)C ?
A) NO

Q) What do you have for COc1cc2cc(C(=O)CCC(=O)O)sc2cc1OC + COC1C(OC(N)=O)C(O)C(Oc2ccc3c(O)c(NC(=O)c4ccc(O)c(CC=C(C)C)c4)c(=O)oc3c2C)OC1(C)C ?
A) NO

Q) What do you have for CC1COCCN1c1cc(-c2ccnn2C)c2ccnc(-c3ccn[nH]3)c2n1 (stereo unspecified) + COC1C(OC(N)=O)C(O)C(Oc2ccc3c(O)c(NC(=O)c4ccc(O)c(CC=C(C)C)c4)c(=O)oc3c2C)OC1(C)C ?
A) YES

Q) What do you have for CC1COCCN1c1cc(-c2ccnn2C)c2ccnc(-c3ccn[nH]3)c2n1 (stereo unspecified) + Nc1ccc(C#CCN(C(=O)Cc2ncc(C(F)(F)F)cc2C(F)(F)F)c2ccc(F)cc2)nn1 ?
A) YES

Q) What do you have for Nc1ccn(C2OC(CO)C(O)C2(F)F)c(=O)n1 (stereo unspecified) + COC1C(OC(N)=O)C(O)C(Oc2ccc3c(O)c(NC(=O)c4ccc(O)c(CC=C(C)C)c4)c(=O)oc3c2C)OC1(C)C ?
A) YES

---

# Test system: 186277-243-T-J2-PDC complex spheroid viability
# PROTOCOL TEXT: Anticancer human tumor 186277-243-T-J2-PDC cell line growth inhibition [POLQ];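 note: spheroids exposed to compounds for seven days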
# DETAILS: curve of first compound; second compound 1 µM
OUTCOME MEASURE: IC50 (nM)
Write down the numeric answer in nM and omit the unit.

COc1ccc([C@@H](O)c2cc(-c3ncnc4cc(N5CCOCC5)ccc34)c(F)cc2Cl)nn1 + COC1C(OC(N)=O)C(O)C(Oc2ccc3c(O)c(NC(=O)c4ccc(O)c(CC=C(C)C)c4)c(=O)oc3c2C)OC1(C)C	6160

Q) # input compound: CC1COCCN1c1cc(-c2ccnn2C)c2ccnc(-c3ccn[nH]3)c2n1 (centres undefined) + COC1C(OC(N)=O)C(O)C(Oc2ccc3c(O)c(NC(=O)c4ccc(O)c(CC=C(C)C)c4)c(=O)oc3c2C)OC1(C)C ; wanted: its IC50
A) 47.4

Q) What do you have for C#Cc1c(F)ccc2cc(O)cc(-c3ncc4c(N5CC6CCC(C5)N6)nc(OCC56CCCN5CC(F)C6)nc4c3F)c12 (centres undefined) + COC1C(OC(N)=O)C(O)C(Oc2ccc3c(O)c(NC(=O)c4ccc(O)c(CC=C(C)C)c4)c(=O)oc3c2C)OC1(C)C ?
A) 95.5

Q) What do you have for COc1cc(C2c3cc4c(cc3C(OC3OC5COC(C)OC5C(O)C3O)C3COC(=O)C23)OCO4)cc(OC)c1O (centres undefined) + Cc1cccc(N(C)C(=O)C2C(O)CCN2c2nc(C)cc(C(F)(F)F)c2C#N)c1 ?
A) 976

Q) What do you have for CC1COCCN1c1cc(C2(S(C)(=N)=O)CC2)nc(-c2ccnc3[nH]ccc23)n1 (centres undefined) + Nc1ccc(C#CCN(C(=O)Cc2ncc(C(F)(F)F)cc2C(F)(F)F)c2ccc(F)cc2)nn1 ?
A) 1780

Q) What do you have for CC1COCCN1c1cc(C2(O)CC3CCC(C2)O3)c2cnn(-c3ccn[nH]3)c2n1 (centres undefined) + COC1C(OC(N)=O)C(O)C(Oc2ccc3c(O)c(NC(=O)c4ccc(O)c(CC=C(C)C)c4)c(=O)oc3c2C)OC1(C)C ?
A) 37.2

Q) What do you have for CC1COCCN1c1cc(C2(O)CC3CCC(C2)O3)c2cnn(-c3ccn[nH]3)c2n1 (centres undefined) + Nc1ccc(C#CCN(C(=O)Cc2ncc(C(F)(F)F)cc2C(F)(F)F)c2ccc(F)cc2)nn1 ?
A) 66.4

Q) What do you have for CC1COCCN1c1cc(C2(S(C)(=N)=O)CC2)nc(-c2ccnc3[nH]ccc23)n1 (centres undefined) + COC1C(OC(N)=O)C(O)C(Oc2ccc3c(O)c(NC(=O)c4ccc(O)c(CC=C(C)C)c4)c(=O)oc3c2C)OC1(C)C ?
A) 822

Q) What do you have for CC1COCCN1c1cc(C2(O)CC3CCC(C2)O3)c2cnn(-c3ccn[nH]3)c2n1 (centres undefined) + Cc1cccc(N(C)C(=O)C2C(O)CCN2c2nc(C)cc(C(F)(F)F)c2C#N)c1 ?
A) 42.6

Q) What do you have for COc1cccc2c1C(=O)c1c(O)c3c(c(O)c1C2=O)CC(O)(C(=O)CO)CC3OC1CC(N)C(O)C(C)O1 (centres undefined) + COC1C(OC(N)=O)C(O)C(Oc2ccc3c(O)c(NC(=O)c4ccc(O)c(CC=C(C)C)c4)c(=O)oc3c2C)OC1(C)C ?
A) 92.4

Q) What do you have for COc1cccc2c1C(=O)c1c(O)c3c(c(O)c1C2=O)CC(O)(C(=O)CO)CC3OC1CC(N)C(O)C(C)O1 (centres undefined) + Nc1ccc(C#CCN(C(=O)Cc2ncc(C(F)(F)F)cc2C(F)(F)F)c2ccc(F)cc2)nn1 ?
A) 236

---

# Test system: 186277-243-T-J2-PDC complex spheroid viability
# PROTOCOL TEXT: Anticancer human tumor 186277-243-T-J2-PDC cell line growth inhibition [POLQ];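 note: spheroids exposed to compounds for seven days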;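 for viability, T/C: 100% = DMSO vehicle control viability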
# DETAILS: second compound 3.16 µM; first compound 10 µM; stronger effect = lower value
// reported viability, T/C for each item listed

Here are 3 molecules together with their reported answers.
CC1COCCN1c1cc(C2(O)CC3CCC(C2)O3)c2cnn(-c3ccn[nH]3)c2n1 (centres undefined) + Cc1cccc(N(C)C(=O)C2C(O)CCN2c2nc(C)cc(C(F)(F)F)c2C#N)c1	4.05%
CC1COCCN1c1cc(-c2ccnn2C)c2ccnc(-c3ccn[nH]3)c2n1 (centres undefined) + Cc1cccc(N(C)C(=O)C2C(O)CCN2c2nc(C)cc(C(F)(F)F)c2C#N)c1	4.6%
CC1COCCN1c1cc(C2(S(C)(=N)=O)CC2)nc(-c2ccnc3[nH]ccc23)n1 (centres undefined) + Nc1ccc(C#CCN(C(=O)Cc2ncc(C(F)(F)F)cc2C(F)(F)F)c2ccc(F)cc2)nn1	8.91%

# ---- query molecule ----
Q) # input molecule: COc1cc2cc(C(=O)CCC(=O)O)sc2cc1OC + Nc1ccc(C#CCN(C(=O)Cc2ncc(C(F)(F)F)cc2C(F)(F)F)c2ccc(F)cc2)nn1 ; wanted: its viability, T/C
A) 93.5%
